# method: Electrical activity assay on cell lines treated with a given drug. DMSO was used as a vehicle and a control, unblinded dofetilide was used as a control.
# Assay type: ADME, cell-based
# applied-conditions: human, ipsc-cm, 1 µM; concentration (um) 1 uM
Rule: FPD measurement under 50 FPDc gives false (0), otherwise true (1).

CC(C)NCC(O)c1ccc(NS(C)(=O)=O)cc1 (stereo not given)    true (1)
O=C(CCCN1CC=C(n2c(=O)[nH]c3ccccc32)CC1)c1ccc(F)cc1    false (0)
COc1ccccc1OCC(O)CN1CCN(CC(=O)Nc2c(C)cccc2C)CC1 (stereo not given)    true (1)
COc1cc2c(Nc3ccc(Br)cc3F)ncnc2cc1OCC1CCN(C)CC1    true (1)

input: State whether the measured FPD measurement reaches 50 FPDc, counting equality as reaching it, for CC(C)N(CCC(C(N)=O)(c1ccccc1)c1ccccn1)C(C)C (stereo not given) [DISOPYRAMIDE]
output: true (1)

====

# method: Electrical activity assay on cell lines treated with a given drug. DMSO was used as a vehicle and a control, unblinded dofetilide was used as a control.
# Assay type: ADME, cell-based
# applied-conditions: human, ipsc-cm, 10 µM; concentration (um) 10 uM
reported-property: FPDc
// return just the number, without any unit appended

COc1ccccc1OCC(O)CN1CCN(CC(=O)Nc2c(C)cccc2C)CC1 (centres undefined)    23.41
CC(C)N(CCC(C(N)=O)(c1ccccc1)c1ccccn1)C(C)C (centres undefined) [DISOPYRAMIDE]    24.5

Okay, next one:
input: # FPDc lookup, item CC(C)NCC(O)c1ccc(NS(C)(=O)=O)cc1 (centres undefined)
output: 24.73

====

# method: Electrical activity assay on cell lines treated with a given drug. DMSO was used as a vehicle and a control, unblinded dofetilide was used as a control.
# applied-conditions: human, ipsc-cm, 1 µM
We use 60 as the dividing line for APDc: on or above the line is yes (1), below is no (0).

// known answers, use as guide
CC(C)N(CCC(C(N)=O)(c1ccccc1)c1ccccn1)C(C)C (configuration not stated) [DISOPYRAMIDE]    yes (1)
Cc1cccc(C)c1OCC(C)N (configuration not stated) [MEXILETINE]    no (0)
CC(C)NCC(O)c1ccc(NS(C)(=O)=O)cc1 (configuration not stated) [SOTALOL]    yes (1)
COc1ccccc1OCC(O)CN1CCN(CC(=O)Nc2c(C)cccc2C)CC1 (configuration not stated) [RANOLAZINE]    no (0)
O=C(CCCN1CC=C(n2c(=O)[nH]c3ccccc32)CC1)c1ccc(F)cc1 [DROPERIDOL]    yes (1)

Next:
input: Assess whether reported APDc for COc1cc2c(Nc3ccc(Br)cc3F)ncnc2cc1OCC1CCN(C)CC1 [VANDETANIB] sits at 60 or higher.
output: yes (1)

====

# method: Electrical activity assay on cell lines treated with a given drug. DMSO was used as a vehicle and a control, unblinded dofetilide was used as a control.
# applied-conditions: human, ipsc-cm, 0.01 µM
Reported FPDc values follow for various compounds

The following compounds have reported results that may help.
COC(=O)C1=C(C)NC(C)=C(C(=O)OC)C1c1ccccc1[N+](=O)[O-] [NIFEDIPINE]    70.54
CC(C)(C)c1ccc(C(O)CCCN2CCC(C(O)(c3ccccc3)c3ccccc3)CC2)cc1 (stereo unspecified) [TERFENADINE]    65.79
CN1CCN(CCCCN2C(=O)CN(/N=C/c3ccc(-c4ccc(Cl)cc4)o3)C2=O)CC1 [AZIMILIDE]    73.84

Now for the compound whose FPDc we want.
input: Find the recorded FPDc belonging to CC(C)COCC(CN(Cc1ccccc1)c1ccccc1)N1CCCC1 (stereo unspecified) [BEPRIDIL] and report it.
output: 70.33
